Assay: Luminescence Cell-Based Dose Retest to Confirm Inhibitors of Cancer Stem Cells. [Related pubchem assays (depositor defined):AID2717, AID2721];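 note: cells exposed to compound for roughly 70 hours or longer before luminescence read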
Type: functional
Settings: Homo sapiens
Active and inactive are the calls of the source. Cut-off read from the data, not from the text of the source: actives have a measured AC50 and inactives only a lower limit.
Pick from Y (active), N (inactive) when you respond.

Example entries begin here.
compound: OC1CCN(c2cc(-c3ccccc3)nc3cc(-c4ccc(F)cc4)nn23)CC1
discrete-label: Y
//
compound: CN(C)C(CNS(=O)(=O)c1ccc2ccccc2c1)c1ccccc1 (stereo not given)
discrete-label: N
//
compound: C=CC(=O)OCCOCCOCCOCCOC(=O)C=C
discrete-label: Y
//
compound: CN1CCc2c(sc(NC(=O)c3ccc(S(=O)(=O)N4CCc5ccccc54)cc3)c2C(N)=O)C1
discrete-label: Y

Can you look up the reported call for CC[C@@H]1CC=C[C@H]2[C@H]1C(=O)N(Cc1ccccc1)[C@H]2c1ccoc1 for me?
Y

From: ChEMBL document CHEMBL1201862
